Test system: SARS-CoV-2
Test: microbe, parasite or virus in culture
Details: Severe acute respiratory syndrome coronavirus 2, HeLa-ACE2, CoV-2/HeLa-ACE2 assay, unit uM
Quantity measured: EC50 (µM)
Could you give me the number in µM? Just the number is fine.

CNCc1ccc(-c2cc(-c3nc(-c4ccc(S(=O)(=O)C(C)C)cc4)cnc3N)on2)cc1; 0.114

Could you now consider this next compound?
Param item = Cc1c(-c2ccc(O)cc2)n(Cc2ccc(OCCN3CCCCC3)cc2)c2ccc(O)cc12 [Pipendoxifene] ; retrieve measured EC50.
8.24

###

Tested on: HeLa-ACE2 cells
Assay: Uninfected host cell cytotoxicity counter screen
Type: cell-based, human
Conditions: uninfected HeLa-ACE2, 24 h
Quantity measured: CC50

So what CC50 did Cc1c(-c2ccc(O)cc2)n(Cc2ccc(OCCN3CCCCC3)cc2)c2ccc(O)cc12 [Pipendoxifene] get with HeLa-ACE2 cells?
> 39.8 µM

###

The following compounds each carry a recorded activity in the HeLa-ACE2 cell-based SARS-CoV-2 assay (in words) for SARS-CoV-2.
Quantity measured: activity in the HeLa-ACE2 cell-based SARS-CoV-2 assay (in words)

Cc1c2c(nn1C)CSCc1cc(n(C)n1)CSc1cc(c3ccccc3c1)OCCCc1c(C(=O)O)n(C)c3c-2c(Cl)ccc13; demonstrated activity
CNCc1ccc(-c2cc(-c3nc(-c4ccc(S(=O)(=O)C(C)C)cc4)cnc3N)on2)cc1; demonstrated activity
Cc1c(-c2ccc(O)cc2)n(Cc2ccc(OCCN3CCCCC3)cc2)c2ccc(O)cc12 [Pipendoxifene]; demonstrated activity
